Measured melting point, listed per entry.

Completed entries (count: 4):
| smiles.record | metric | assay.value |
| --- | --- | --- |
| CCOc1c(F)ccc2c1c(CCN(C)C)cn2CC.Cl | melting point | 130 to 132 °C |
| CCCOc1ccc(F)c2c1c(CCN(C)C)cn2CC | melting point | 49 to 50 °C |
| CCCOc1cc(F)cc2c1c(CCN(C)C)cn2CC | melting point | 68.9 to 70.1 °C |
| CCn1cc(CCN(C)C)c2c(OC)cc(F)cc21.Cl | melting point | 233.4 to 234.9 °C |

For the next question, use this compound.
Looking up CN(C)CCc1cn(C)c2ccc(F)c(OCc3ccccc3)c12.Cl , I found its melting point recorded as 139 to 141 °C
